Recorded Euclidean distance values for a group of compounds are listed next.
# System: FB
# assay_details: Euclidean distance of Cell Painting phenotypic profile (signed KS, 77 features) to DMSO centroid (dimensionless distance); 5 or 10 uM (library dependent); higher = stronger phenotypic change vs DMSO (phenoactivity)
# run_conditions: 48 h
Structures can show the parent of a compound that is named as a salt.

compound	Euclidean distance
CN1C[C@@H]2C[C@H]1CN2c1cc2c(cc1F)c(=O)c(C(=O)O)cn2C1CC1 [Danofloxacin Mesylate]	0.963
COc1cc(CNC(=O)CCCC/C=C\C(C)C)ccc1O	0.743
CCOc1nc2cccc(C(=O)OCc3oc(=O)oc3C)c2n1Cc1ccc(-c2ccccc2-c2noc(=O)[nH]2)cc1	0.689
C[C@@H]1C[C@H]2[C@@H]3CCC4=CC(=O)C=C[C@]4(C)[C@@]3(Cl)[C@@H](O)C[C@]2(C)[C@@]1(OC(=O)c1ccco1)C(=O)CCl [Mometasone furoate]	1.79
O=C(N/N=C/c1ccc([N+](=O)[O-])o1)c1ccc(O)cc1 [Nifuroxazide]	1.33
COc1cc(CCc2cc(NC(=O)c3ccc(N4CC(C)NC(C)C4)cc3)n[nH]2)cc(OC)c1 (configuration not stated)	3.59
O=c1c(-c2ccc(O)cc2)coc2c([C@@H]3O[C@H](CO)[C@@H](O)[C@H](O)[C@H]3O)c(O)ccc12	0.661

###

# Tested on: HEPG2
# assay_details: Euclidean distance of Cell Painting phenotypic profile (signed KS, 77 features) to DMSO centroid (dimensionless distance); 5 or 10 uM (library dependent); higher = stronger phenotypic change vs DMSO (phenoactivity)
# run_conditions: 48 h
Where a name gives a salt, the structure may show the parent alone.
Reported Euclidean distance values for the following molecules.
measured_attribute: Euclidean distance

molecule	tgt	recorded_result
Nc1nc(Cl)nc2c1ncn2[C@@H]1O[C@H](CO)[C@@H](O)[C@@H]1F	HEPG2	3.02
CCCc1nn(C)c2c(=O)[nH]c(-c3cc(S(=O)(=O)N4CCN(C)CC4)ccc3OCC)nc12 [Sildenafil Citrate]	HEPG2	0.957
COc1cc(C(=O)O)ccc1NC(=O)[C@@H]1N[C@@H](CC(C)(C)C)[C@](C#N)(c2ccc(Cl)cc2F)[C@H]1c1cccc(Cl)c1F [Idasanutlin (RG-7388)]	HEPG2	1.15
CCCN(CCc1cccs1)[C@H]1CCc2c(O)cccc2C1	HEPG2	0.437
c1ccc(-c2ccc(C(c3ccccc3)n3ccnc3)cc2)cc1 (stereo not drawn)	HEPG2	0.639
CN(C)N(C)C(=O)[C@@]1(Cc2ccccc2)CCCN(C(=O)[C@@H](Cc2c[nH]c3ccccc23)NC(=O)C(C)(C)N)C1	HEPG2	0.82
Cc1c(-c2ccc(O)cc2)n(Cc2ccc(OCCN3CCCCCC3)cc2)c2ccc(O)cc12 [Bazedoxifene Acetate]	HEPG2	4.37
COc1ccc(-c2cc(=O)c3c(OC)c(OC)c(OC)c(OC)c3o2)cc1	HEPG2	0.656

###

# System: OVCAR4
# assay_details: Euclidean distance of Cell Painting phenotypic profile (signed KS, 77 features) to DMSO centroid (dimensionless distance); 5 or 10 uM (library dependent); higher = stronger phenotypic change vs DMSO (phenoactivity)
# run_conditions: 48 h
Counter-ions that a name gives are not always drawn.
Categories are assigned from the measured Euclidean distance using these intervals: A: < 1; B: ≥ 1 and < 2; C: ≥ 2

molecule	label
Cn1nnnc1SCC1=C(C(=O)O)N2C(=O)[C@@H](NC(=O)[C@H](OC=O)c3ccccc3)[C@H]2SC1 [Cefamandole nafate]	A
OC(Cn1cncn1)(Cn1cncn1)c1ccc(F)cc1F	B
O=C(O)c1cc(/N=N/c2ccc(S(=O)(=O)Nc3ccccn3)cc2)ccc1O	A
CCOC(=O)C1=C(C)NC(C)=C(C(=O)OCC)C1c1ccccc1/C=C/C(=O)OC(C)(C)C	B
CN(C)CCCN1c2ccccc2Sc2ccc(Cl)cc21	B
CCCCCCCCN=C(N)NC(N)=NCc1ccc(Cl)c(Cl)c1 [Olanexidine Hydrochloride semihydrate]	C
O=C1Cc2cc(CCN3CCN(c4nsc5ccccc45)CC3)c(Cl)cc2N1 [Ziprasidone HCl]	B
O=c1c2ccccc2nc2n1CCc1c-2[nH]c2ccccc12	B
COc1ccc(-c2nc(N3CCOCC3)c3sc(CN(C)c4ncc(C(=O)NO)cn4)cc3n2)cn1	C

###

# Tested on: OVCAR4
# assay_details: Euclidean distance of Cell Painting phenotypic profile (signed KS, 77 features) to DMSO centroid (dimensionless distance); 5 or 10 uM (library dependent); higher = stronger phenotypic change vs DMSO (phenoactivity)
# run_conditions: 48 h
Where a name gives a salt, the structure may show the parent alone.

compound	Euclidean distance
C[C@@H](NC(=O)c1ncnc(N)c1Cl)c1ncc(C(=O)Nc2cc(C(F)(F)F)c(Cl)cn2)s1	1.52
C#C[C@]1(O)CC[C@H]2[C@@H]3CCC4=CCCC[C@@H]4[C@H]3C(=C)C[C@@]21CC	0.826
C=C1CC[C@H]2C(=C)CC[C@H]3C(=C)C(=O)O[C@@H]3[C@@H]12 [Dehydrocostus Lactone]	2.97
O=C(c1ccc(F)c(F)c1Nc1ccc(I)cc1F)N1CC(O)([C@@H]2CCCCN2)C1	2.85
CC(C)[N+](C)(CCOC(=O)C1c2ccccc2Oc2ccccc21)C(C)C [Propantheline bromide]	0.718
NC[C@H]1O[C@H](O[C@H]2[C@H](O[C@@H]3O[C@H](CO)[C@@H](O)[C@H]3O)[C@@H](O)[C@H](N)C[C@@H]2N)[C@H](N)[C@@H](O)[C@@H]1O [Ribostamycin Sulfate]	1.22
CCCCCCCCCCCCCCCCCCOP(=O)([O-])OC1CC[N+](C)(C)CC1	1.79
S=c1nc[nH]c2nc[nH]c12 [6-Mercaptopurine (6-MP) Monohydrate]	0.591
COc1cc2ncc(-c3ccccc3)nc2cc1OC	1.6
COc1cc(C(=O)OCCCCNC(=N)N)cc(OC)c1O	0.953
Cc1nnc(SCC2=C(C(=O)O)N3C(=O)[C@@H](NC(=O)Cn4cnnn4)[C@H]3SC2)s1 [Cefazolin Sodium]	1.27
CC[C@H](C)[C@H](NC(=O)[C@H](Cc1ccc(O)cc1)NC(=O)[C@@H](NC(=O)[C@H](CCCN=C(N)N)NC(=O)[C@@H](N)CC(=O)O)C(C)C)C(=O)N[C@@H](Cc1cnc[nH]1)C(=O)N1CCC[C@H]1C(=O)N[C@@H](Cc1ccccc1)C(=O)O [Angiotensin II human Acetate]	0.985
CC[C@H]1OC(=O)[C@H](C)[C@@H](O[C@H]2C[C@@](C)(OC)[C@@H](O)[C@H](C)O2)[C@H](C)[C@@H](O[C@@H]2O[C@H](C)C[C@H](N(C)C)[C@H]2O)[C@](C)(O)C[C@@H](C)C(=O)[C@H](C)[C@@H](O)[C@]1(C)O [Erythromycin thiocyanate]	1.95
COc1ccc(-c2cc(=O)c3c(OC)c(OC)c(OC)c(OC)c3o2)cc1OC	0.897
Cc1ccc(-n2nc(C(C)(C)C)cc2NC(=O)Nc2ccc(OCCN3CCOCC3)c3ccccc23)cc1	1.21
Cc1cc(CN2CCN(c3c(Br)cnc4nc(-c5ccc(N6CCN(C)CC6)cc5)[nH]c34)CC2)no1	1.25
COc1cc(CNC(=O)CCCCC=CC(C)C)ccc1O	1.44
CN(C)c1ccc2nc3ccc(=[N+](C)C)cc-3sc2c1	2.92
O=C1OCCN1/N=C/c1ccc([N+](=O)[O-])o1	1.09
CC1(C)OC[C@@H](COC(=O)CCc2ccc(OC[C@@H](O)CNCCNC(=O)N3CCOCC3)cc2)O1 [Landiolol hydrochloride]	1.25
O=C(N/N=C/c1ccc([N+](=O)[O-])o1)c1ccc(O)cc1 [Nifuroxazide]	1.2
Cc1cc(=O)oc2cc(O)ccc12	0.95
O=C(O)C1=CO[C@@H](O[C@@H]2O[C@H](CO)[C@@H](O)[C@H](O)[C@H]2O)[C@@H]2C(CO)=CC[C@H]12	0.756
NCCc1c[nH]cn1	1.27
CC[C@H](Nc1ncnc2[nH]cnc12)c1oc2ccccc2c(=O)c1-c1cccc(F)c1 [Tenalisib (RP6530)]	0.678
CNCCc1ccccn1 [Betahistine 2HCl]	1.03
CCCCOc1c(C(=O)c2c(F)cc(C)cc2F)c[nH]c2nncc1-2	2.1
Cc1ccc(C(=O)Nc2ccc(CN3CCN(C)CC3)c(C(F)(F)F)c2)cc1C#Cc1cnc2cccnn12	4.29
COc1ccc(CNC(=O)Nc2ncc([N+](=O)[O-])s2)cc1	0.694
N#C/C(=C1/SC[C@@H](c2ccc(Cl)cc2Cl)S1)n1ccnc1	1.1

###

# System: FB
# assay_details: Euclidean distance of Cell Painting phenotypic profile (signed KS, 77 features) to DMSO centroid (dimensionless distance); 5 or 10 uM (library dependent); higher = stronger phenotypic change vs DMSO (phenoactivity)
# run_conditions: 48 h
Structures can show the parent of a compound that is named as a salt.
Assign class by Euclidean distance: not lower than 1 means 1; lower than 1 means 0.

compound	label
O=C(O)CC[C@H]1CC[C@@](c2cc(F)ccc2F)(S(=O)(=O)c2ccc(Cl)cc2)CC1	1
CCCCOc1cc(C(=O)OCCN(CC)CC)ccc1N [Oxybuprocaine HCl]	0
CC[C@H](Nc1ncnc2[nH]cnc12)c1oc2ccccc2c(=O)c1-c1cccc(F)c1 [Tenalisib (RP6530)]	1
O=C(O)CC(O)(CC(=O)O)C(=O)O	0
CCCCN(CCCC)CC(O)c1cc(Cl)cc2c1-c1ccc(Cl)cc1/C2=C/c1ccc(Cl)cc1 (stereo not drawn)	0
COCCOC(=O)C1=C(C)NC(C)=C(C(=O)OC(C)C)C1c1cccc([N+](=O)[O-])c1 (stereo not drawn)	1
C[N+](C)(C)CCOC(N)=O	1

The origin of these recorded values is the supplement of paper PMC10127200.
